Origin of values: patent US20210130452A1

molecular target: T1, human IL-17A/F heterodimer (human, UniProt Q16552 24-155; Q96PD4 31-163, limits assumed); assay: SPR
T1 construct: produced in E. coli, bought from R&D Systems (Cat 5194-IL/CF); also called hIL-17A/F
T1 sequence (Q16552 24-155 limits assumed, chain 1 of 2): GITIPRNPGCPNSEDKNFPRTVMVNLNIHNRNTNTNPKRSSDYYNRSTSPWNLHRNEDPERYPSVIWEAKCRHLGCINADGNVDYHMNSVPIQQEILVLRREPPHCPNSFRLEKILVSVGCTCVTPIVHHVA
T1 sequence (Q96PD4 31-163 limits assumed, chain 2 of 2): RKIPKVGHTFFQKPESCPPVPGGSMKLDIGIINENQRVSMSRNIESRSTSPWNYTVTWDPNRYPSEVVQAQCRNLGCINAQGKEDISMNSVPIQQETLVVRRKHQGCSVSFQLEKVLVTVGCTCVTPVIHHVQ
# key: entry, value: koff
Value expressed in s⁻¹; do not type the unit.

# Binder, koff [s⁻¹]
data = [
    ("IL17MS3012 (VHH, name in Kabat numbering, basic + T23A; Kabat positions) VHH: EVQLVESGGGLVQPGGSQRLSCAASGTIVNIHVMGWYRQAPGKQRELVALIFSGGSADYADSVKGRFTISRDNSKNTVYLQMNSLRAEDTAVYYCAAEIGYYSGGTYYSSEAHWGQGTLVTVSS", 0.000228),
]

# input for lookup
Would you kindly share the measured koff for IL17MS3013 (VHH, name in Kabat numbering, basic + A84P; Kabat positions) VHH: EVQLVESGGGLVQPGGSQRLSCTASGTIVNIHVMGWYRQAPGKQRELVALIFSGGSADYADSVKGRFTISRDNSKNTVYLQMNSLRPEDTAVYYCAAEIGYYSGGTYYSSEAHWGQGTLVTVSS ?
0.000185
